Hey, just so you know, these numbers are from ChEMBL document CHEMBL1961873.

Reported inhibition values for the following molecules.
Target: Cyclin-dependent kinase 6 (Homo sapiens) (UniProt Q00534);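 also: mean percent inhibition of the kinase bound to its cyclin partner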
Sequence (Q00534 whole entry): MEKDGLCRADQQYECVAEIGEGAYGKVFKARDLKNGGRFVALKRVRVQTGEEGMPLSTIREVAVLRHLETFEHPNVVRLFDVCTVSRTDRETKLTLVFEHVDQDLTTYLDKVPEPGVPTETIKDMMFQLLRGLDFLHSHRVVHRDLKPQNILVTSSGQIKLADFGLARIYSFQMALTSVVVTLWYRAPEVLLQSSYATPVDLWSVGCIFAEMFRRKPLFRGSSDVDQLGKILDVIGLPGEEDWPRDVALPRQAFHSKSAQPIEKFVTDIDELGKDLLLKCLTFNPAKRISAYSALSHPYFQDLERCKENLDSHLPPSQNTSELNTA
Details: at 1 µM
Hi! Could you send only the number? It should be in %, unit omitted.

Use the examples below as a reference point.
COc1cc(Nc2ncc(-c3ccccc3)o2)cc(OC)c1OC 3.26
NC(=O)c1ccc(Oc2nccc(-c3c(-c4ccc(F)cc4)ncn3C3CCNCC3)n2)cc1 -0.8

q: Item under review: NS(=O)(=O)c1ccc(N/N=C2\C(=O)Nc3ccc(-c4cnco4)cc32)cc1 . Reported inhibition?
a: 50.3

q: What would you report for CCc1ccc(Oc2nccc(-c3c(-c4ccc(F)cc4)ncn3C3CCNCC3)n2)cc1 ?
a: -4.3

q: What would you report for C[C@@H](Oc1cc(-n2cnc3ccc(OCC4CCN(C)CC4)cc32)sc1C(N)=O)c1ccccc1Cl ?
a: 0.37

q: What would you report for CN1CCN(CCCNc2nc3ccc(Oc4ccc(NC(=O)Nc5cc(C(F)(F)F)ccc5F)cc4)cc3[nH]2)CC1 ?
a: -1.64

q: What would you report for Cc1ccc(C(=O)NC(C)C)cc1-c1ccc(C(=O)NCC2CC2)cc1 ?
a: -0.75

q: What would you report for NCc1ccc(-n2c(-c3nonc3N)nc3cnccc32)cc1 ?
a: 5.55
